target: T1, HLA-A*0301 (human); assay: inhibition of 125I-labelled standard peptide 941.12 binding to purified HLA-A*0301, gel filtration
T1 construct: also called HLA-A3
Reported relative binding ratio (IC50 of standard peptide / IC50 of test peptide) values follow for various binders
Value kind: relative binding ratio (IC50 of standard peptide / IC50 of test peptide) (ratio)

# Binder, Measured number
measured = [
    ("PASPLDSTFY [HER2/neu peptide, position 996, 10 amino acids]", 0.0003),
    ("QVRQVPLQR [HER2/neu peptide, position 90, 9 amino acids]", 0.0029),
    ("PLQRLRIVR [HER2/neu peptide, position 95, 9 amino acids]", 0.0002),
    ("PLPSETDGY [HER2/neu peptide, position 1119, 9 amino acids]", 0.0002),
]
